*1 amine or outer side, *2 acyl side, *3 side chain or, on linkers, in order; H or OH if unused. Where a SMILES comes first, the peptide text is derived from it. [ ]: non-standard residue; d: D form. The star is where a group is joined. ξ: configuration not given here. X1 = O=C(C(=O)[*:2])C1CCCN1[*:1]; Cbz = O=C(OCc1ccccc1)*; ξV = CC(C)C(N)C(=O)O; OBn = c1ccc(CO*)cc1
Quick record of IC50 values for prolyl endopeptidase (Sus scrofa, UniProt P23687).

>  <COMPOUND>
CC(C)C[C@@H](NC(=O)C(=O)C1CCCN1C(=O)C1CCCN1C(=O)OCc1ccccc1)C(=O)NC(C(=O)OCc1ccccc1)C(C)C (stereo partly shown)

>  <IC50, nM>
3.25

$$$$
>  <COMPOUND>
CC(C)C[C@@H](NC(=O)C(=O)C1CCCN1C(=O)C(NC(=O)C(N)C(C)C)C(C)C)C(=O)NC(C(=O)O)C(C)C (stereo partly drawn) [Example 8] (H-[ξV][ξV][X1][dL][ξV]-OH)

>  <IC50, nM>
19.9

$$$$
>  <COMPOUND>
CC(C)C[C@@H](NC(=O)C(=O)C1CCCN1C(=O)C(Cc1ccccc1)NC(=O)OCc1ccccc1)C(=O)OC(C)(C)C (stereo partly shown)

>  <IC50, nM>
3.37

$$$$
>  <COMPOUND>
CC(C)CC(NC(=O)C(=O)C1CCCN1C(=O)C(Cc1ccccc1)NC(=O)OCc1ccccc1)C(=O)OC(C)(C)C (stereo not shown)

>  <IC50, nM>
3.03

$$$$
>  <COMPOUND>
O=C(O)CNC(=O)C(=O)C1CCCN1C(=O)C(Cc1ccccc1)NC(=O)OCc1ccccc1 (stereo not shown)

>  <IC50, nM>
2.28

$$$$
>  <COMPOUND>
CC(C)C[C@@H](NC(=O)C(=O)C1CCCN1C(=O)OCc1ccccc1)C(=O)OC(C)(C)C (stereo partly shown)

>  <IC50, nM>
103

$$$$
>  <COMPOUND>
CC(C)C[C@@H](NC(=O)C(=O)C1CCCN1C(=O)C(NC(=O)C(NC(=O)OCc1ccccc1)C(C)C)C(C)C)C(=O)NC(C(=O)OCc1ccccc1)C(C)C (stereo partly drawn) [Example 7] (Cbz-[ξV][ξV][X1][dL][ξV]-OBn)

>  <IC50, nM>
9

$$$$

###

Quick record of pIC50 values for prolyl endopeptidase (Sus scrofa, UniProt P23687).
pIC50: −log10 of the molar value.

>  <COMPOUND>
CC(C)C[C@@H](NC(=O)C(=O)C1CCCN1C(=O)C(Cc1ccccc1)NC(=O)OCc1ccccc1)C(=O)O (stereo partly shown)

>  <pIC50>
8.62

$$$$
>  <COMPOUND>
CC(C)C[C@@H](NC(=O)C(=O)C1CCCN1C(=O)C(Cc1ccccc1)NC(=O)OCc1ccccc1)C(=O)NC(C)(C)C (stereo partly shown)

>  <pIC50>
8.63

$$$$
>  <COMPOUND>
CC(C)C[C@@H](NC(=O)C(=O)C1CCCN1C(=O)CC(C)(C)C)C(=O)OC(C)(C)C (stereo partly shown)

>  <pIC50>
7.66

$$$$
>  <COMPOUND>
CC(C)(C)OC(=O)CNC(=O)C(=O)C1CCCN1C(=O)C(Cc1ccccc1)NC(=O)OCc1ccccc1 (stereo not shown)

>  <pIC50>
8.83

$$$$
